Each recorded value in this set is attributed to paper PMC12102759.

B1: PEX5 peptide 238-253 (Peroxisomal targeting signal 1 receptor), 16-mer library wild type / PEX14 Pex14 (PEX14 PEX14, residues 16-84) (parent)
chain 1: AQAEQWAAEFIQQQGT
chain 2: TPGSENVLPREPLIATAVKFLQNSRVRQSPLATRRAFLKKKGLTDEEIDMAFQQSGTAADEPSSLGPAT

Variants of: B1
Test: proteomic peptide phage display deep mutational scan (ProP-PD DMS): M13 P8 16-mer library selected against immobilised GST-tagged bait for four days (rounds), NGS of the eluted pools per day and pseudo-replica
Details: with PEX14 Pex14 (PEX14 PEX14, residues 16-84); bait immobilised on MaxiSorp plates (10 µg), library pre-cleared on GST, 2 h binding at 4 °C, five washes; one round per day, days 1-4; value from days 2 and 3; keep out of graded; scale: average fractional NGS count over selection days 2 and 3
Observation Type: screen value

>>> df
   mutant_label     value
0   chain 1 A7R   0.00151
1  chain 1 Q13A   0.00172
2   chain 1 A7G   0.00166
3  chain 1 T16H   0.00132
4  chain 1 Q12T  0.000592

Quick one: give me screen value for each item below, same order please.
1. chain 1 Q12L
2. chain 1 A3W
3. chain 1 A3M
4. chain 1 I11E
5. chain 1 E9Q
6. chain 1 Q2R

Output line:
1: 0.000406; 2: 0; 3: 0.000674; 4: 0.00192; 5: 0.000716; 6: 7.71e-05

Quick one: give me screen value for each item below, same order please.
1. chain 1 Q5I
2. chain 1 A3D
3. chain 1 I11S
4. chain 1 F10Y

Output line:
["7.71e-05", 0.000241, 0.000456, 0.000488]

Quick one: give me screen value for each item below, same order please.
1. chain 1 A3G
2. chain 1 E4A
3. chain 1 Q12P
4. chain 1 Q13L

Output line:
[0.000791, 0.000155, 0.000699, 0.00111]

Quick one: give me screen value for each item below, same order please.
1. chain 1 E4K
2. chain 1 T16E
3. chain 1 T16N

Output line:
1. 0.00104
2. 0
3. 0.000881
